Field: solubility kinetic. Provide a value for each of the compounds that follow.
condition.set: buffer; pH 7.4; 200.0 µM

Report solubility kinetic for every entry below.
1. O=C(C1CC2C=CC1C2)N1CCN(c2ccccc2)CC1 (centres undefined)
2. CC(=O)Nc1cccc(-c2csc(N)n2)c1
3. N#CC1(P(=O)(c2ccccc2)c2ccccc2)CCCC1
4. CCc1ccc(NC(=S)N2CCCC2)cc1

Result:
["> 42.4 µg/mL", "> 35 µg/mL", "> 44.3 µg/mL", "> 35.2 µg/mL"]

---

condition.set: buffer; pH 7.4; 200.0 µM
Field: solubility kinetic. Provide a value for each of the compounds that follow.

Observe how each entry below is paired with its result.
- compound: "O=C(CN1C(=O)NC2(CCCCCC2)C1=O)NCc1ccccc1"
  result: "> 49.4 µg/mL"
- compound: "Cc1ccc(S(=O)(=O)N[C@@H](Cc2ccccc2)C(=O)CCl)cc1"
  result: "> 52.8 µg/mL"
- compound: "COCc1cc(=O)[nH]c(SCC(=O)c2ccccc2)n1"
  result: "> 43.6 µg/mL"

Report solubility kinetic for every entry below.
1. CC1CCc2sc(C(=O)NC(C)C3CCCO3)cc2C1 (stereo not drawn)
2. CCOC(=O)C(NCCOC)(NC(C)=O)C(F)(F)F (stereo not drawn)

Result:
["> 44 µg/mL", "> 42.9 µg/mL"]

Report solubility kinetic for every entry below.
1. CN(CC(=O)Nc1ccc(S(N)(=O)=O)cc1)C1CCCCC1
2. CCOc1ccc(N2C(=O)CSC2=S)cc1
3. Cc1cc(C)c(C)c(S(=O)(=O)NC2CCCCC2)c1C

Result:
1: > 48.8 µg/mL; 2: < 0.5 µg/mL; 3: < 0.6 µg/mL
